tested system: Ephrin type-B receptor 3 (Homo sapiens);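 also: values are mean percent inhibition of EPHB3 from the GSK PKIS screening panel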
condition: at 1 µM
endpoint: inhibition
Put down the number, then write its unit next to it.

// known answers, use as guide
{"chemical string": "NS(=O)(=O)c1cccc(-c2cc3ccncc3cc2OCc2ccccc2)c1", "inhibition": "4.28%"}
{"chemical string": "COc1ccc(-c2nn3ncccc3c2-c2ccnc(Nc3cccc(C(F)(F)F)c3)n2)cc1", "inhibition": "4.5%"}
{"chemical string": "NC(=O)c1cccc(Nc2nccc(Nc3cccc(F)c3)n2)c1", "inhibition": "2.83%"}
{"chemical string": "ON=C1CCc2cc(-c3nc(C4CCNCC4)[nH]c3-c3ccncc3)ccc21", "inhibition": "-3.73%"}

Here is the next item to consider.
// inhibition lookup, key: `O=C(Nc1ccc(Oc2ccc3[nH]c(NC(=O)c4ccco4)nc3c2)cc1)Nc1cc(C(F)(F)F)ccc1F`
24.2%

* * *

tested system: Protein kinase C beta type (Homo sapiens);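 also: GSK PKIS screen, average inhibition of the PKC-beta2 splice variant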
condition: at 1 µM
Description: GSK_PKIS: PKC-beta2 (splice variant) mean inhibition at 1 uM [Nanosyn]
endpoint: inhibition (%)
Write down the numeric answer in % and omit the unit.

// known answers, use as guide
{"chemical string": "NS(=O)(=O)c1cccc(-c2cc3ccncc3cc2OCc2ccccc2)c1", "inhibition (%)": 2.23}
{"chemical string": "COc1cc2ncnc(Nc3ccc4c(cnn4Cc4ccccc4)c3)c2cc1OC", "inhibition (%)": 0.88}

// inhibition lookup, key: `Nc1nccc(-c2c(-c3ccc(F)cc3)nn3cc(C(F)(F)F)ccc23)n1`
2.07

// inhibition lookup, key: `COc1cccc(-n2ncc3c(N/N=C/c4ccc(C)cc4)ncnc32)c1`
2.79

// inhibition lookup, key: `COc1cc(/C=N/Nc2ncnc3c2cnn3C(C)C)ccc1O`
4.67

// inhibition lookup, key: `Oc1cccc(-c2nc(-c3ccccc3)[nH]c2-c2ccncc2)c1`
7.1

// inhibition lookup, key: `CN(c1ccc(NC(=O)Nc2ccc(OC(F)(F)F)cc2)cc1)c1ccnc(Nc2cccc(S(N)(=O)=O)c2)n1`
0.69

// inhibition lookup, key: `NS(=O)(=O)c1ccc(Nc2cc(-c3cccc(O)c3)n[nH]2)cc1`
3.75

* * *

tested system: Rho-associated protein kinase 1 (Homo sapiens) (UniProt Q13464);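 also: values are mean percent inhibition of ROCK1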
Sequence (Q13464 2-1354 limits assumed): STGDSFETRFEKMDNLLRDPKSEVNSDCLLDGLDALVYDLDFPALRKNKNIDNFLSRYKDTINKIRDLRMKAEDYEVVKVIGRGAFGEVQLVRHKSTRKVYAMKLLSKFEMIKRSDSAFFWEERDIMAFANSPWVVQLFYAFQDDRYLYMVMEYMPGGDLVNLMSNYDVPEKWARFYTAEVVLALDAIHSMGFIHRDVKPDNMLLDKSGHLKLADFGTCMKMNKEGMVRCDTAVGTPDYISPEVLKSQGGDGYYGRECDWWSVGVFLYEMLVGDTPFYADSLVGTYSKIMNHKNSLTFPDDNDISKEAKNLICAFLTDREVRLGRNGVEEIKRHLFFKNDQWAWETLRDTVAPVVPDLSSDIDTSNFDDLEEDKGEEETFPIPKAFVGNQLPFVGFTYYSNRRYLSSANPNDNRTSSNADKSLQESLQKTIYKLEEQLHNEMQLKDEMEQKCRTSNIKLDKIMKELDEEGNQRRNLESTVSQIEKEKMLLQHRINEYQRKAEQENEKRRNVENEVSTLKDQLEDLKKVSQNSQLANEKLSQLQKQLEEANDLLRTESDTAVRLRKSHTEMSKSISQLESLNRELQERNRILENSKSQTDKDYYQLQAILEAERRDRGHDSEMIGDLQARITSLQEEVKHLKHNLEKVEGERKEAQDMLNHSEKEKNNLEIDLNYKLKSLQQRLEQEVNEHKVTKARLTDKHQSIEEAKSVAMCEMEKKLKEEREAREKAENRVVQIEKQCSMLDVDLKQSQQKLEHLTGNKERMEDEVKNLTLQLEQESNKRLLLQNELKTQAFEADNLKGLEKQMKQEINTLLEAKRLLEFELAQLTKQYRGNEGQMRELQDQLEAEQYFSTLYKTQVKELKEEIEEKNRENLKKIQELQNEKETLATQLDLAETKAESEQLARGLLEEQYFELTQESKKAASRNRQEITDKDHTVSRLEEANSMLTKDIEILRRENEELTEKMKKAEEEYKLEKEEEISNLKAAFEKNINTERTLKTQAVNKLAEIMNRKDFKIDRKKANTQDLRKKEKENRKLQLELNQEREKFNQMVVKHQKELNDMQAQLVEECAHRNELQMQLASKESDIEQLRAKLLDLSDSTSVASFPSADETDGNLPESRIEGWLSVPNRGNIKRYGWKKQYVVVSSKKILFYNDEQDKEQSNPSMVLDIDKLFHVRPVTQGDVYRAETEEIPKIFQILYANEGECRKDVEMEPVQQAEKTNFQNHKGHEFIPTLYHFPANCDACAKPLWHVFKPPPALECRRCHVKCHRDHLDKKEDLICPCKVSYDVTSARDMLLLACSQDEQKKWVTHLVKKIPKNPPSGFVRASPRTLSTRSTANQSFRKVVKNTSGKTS
condition: at 0.1 µM
Quick reference for inhibition among some molecules
Write down the numeric answer in % and omit the unit.

// inhibition lookup, key: `Cc1ccc2c(c1)/C(=N/Nc1ccc(S(N)(=O)=O)cc1)C(=O)N2`
0.97

// inhibition lookup, key: `COc1cc(/C=N/Nc2ncnc3c2cnn3C(C)C)ccc1O`
0.31

// inhibition lookup, key: `COc1cc(Nc2nccc(-c3cnn4ncccc34)n2)cc(OC)c1`
0.75

* * *

Quick reference for inhibition among some compounds
tested system: Serine/threonine-protein kinase D1 (Homo sapiens) (UniProt Q15139);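 also: each value is an averaged percent inhibition of PRKD1 kinase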
Sequence (whole entry): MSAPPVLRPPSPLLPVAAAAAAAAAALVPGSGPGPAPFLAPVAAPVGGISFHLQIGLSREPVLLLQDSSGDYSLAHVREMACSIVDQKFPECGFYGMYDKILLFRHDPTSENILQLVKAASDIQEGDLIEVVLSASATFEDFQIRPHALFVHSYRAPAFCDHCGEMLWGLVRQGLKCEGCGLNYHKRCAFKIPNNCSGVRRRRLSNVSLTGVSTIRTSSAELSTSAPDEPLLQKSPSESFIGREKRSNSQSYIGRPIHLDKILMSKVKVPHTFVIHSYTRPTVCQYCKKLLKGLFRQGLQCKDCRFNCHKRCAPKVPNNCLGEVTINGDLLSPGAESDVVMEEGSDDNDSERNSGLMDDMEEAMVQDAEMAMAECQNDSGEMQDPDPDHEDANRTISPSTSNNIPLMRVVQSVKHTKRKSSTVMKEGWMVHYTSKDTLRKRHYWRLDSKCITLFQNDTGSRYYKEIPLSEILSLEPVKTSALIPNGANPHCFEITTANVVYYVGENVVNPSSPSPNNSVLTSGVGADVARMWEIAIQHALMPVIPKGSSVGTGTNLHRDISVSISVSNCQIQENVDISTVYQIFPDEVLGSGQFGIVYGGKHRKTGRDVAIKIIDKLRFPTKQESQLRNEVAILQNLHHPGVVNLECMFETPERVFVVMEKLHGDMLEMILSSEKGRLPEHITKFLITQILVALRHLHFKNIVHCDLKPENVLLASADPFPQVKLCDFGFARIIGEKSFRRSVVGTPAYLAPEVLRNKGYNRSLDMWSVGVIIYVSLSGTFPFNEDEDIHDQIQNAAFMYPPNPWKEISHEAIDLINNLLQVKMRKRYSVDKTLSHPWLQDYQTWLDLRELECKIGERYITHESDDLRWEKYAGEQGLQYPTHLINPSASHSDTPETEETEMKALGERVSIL
condition: at 1 µM
Write down the numeric answer in % and omit the unit.

// inhibition lookup, key: `COc1cccc(-n2nc(C)c3c(N/N=C(\C)c4ccncc4)ncnc32)c1`
0.3
